- assay.target: T1, recombinant human full-length TDP-43 (TAR DNA-binding protein 43), soluble (human, UniProt Q13148 1-414)
- T1 construct: Used on Luminex beads, coated on ELISA plates, and immobilized or injected in SPR; also called FL TDP-43; TDP-43 protein
- T1 sequence (Q13148 whole entry): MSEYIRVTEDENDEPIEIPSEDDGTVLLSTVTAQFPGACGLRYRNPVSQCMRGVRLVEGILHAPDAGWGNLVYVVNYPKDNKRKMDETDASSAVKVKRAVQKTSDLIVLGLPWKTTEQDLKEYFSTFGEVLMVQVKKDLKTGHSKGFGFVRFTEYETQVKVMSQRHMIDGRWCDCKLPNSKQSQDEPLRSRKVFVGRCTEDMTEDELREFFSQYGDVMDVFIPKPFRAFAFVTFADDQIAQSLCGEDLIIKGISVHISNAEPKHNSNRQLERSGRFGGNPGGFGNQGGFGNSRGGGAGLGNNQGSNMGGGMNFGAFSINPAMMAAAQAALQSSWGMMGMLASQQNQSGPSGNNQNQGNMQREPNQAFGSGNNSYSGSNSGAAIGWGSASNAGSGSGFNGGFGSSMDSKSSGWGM
- protocol.description: SPR, immobilized soluble TDP-43
pKd: −log10 of the molar value.
assay.readout: pKd

[[record]]
binder = "ACI-7069-642D12-Ab1 (antibody, mouse IgG2b, V domains shown, Mouse IgG2b, kappa, from hybridoma; also called 642D12B4) VH: EVQLQQSGAELVKPGASVRLSCTASGFNIKDPYMHWVRQRPKQGLEWIGRIDPADGNTKYDPKFQGKATLTADTSSNVAYLHLSSLTSEDTAVYYCARFYGSSHWYFDVWGAGTTVTVSS VL: DIKMTQSPSSMYASLGERVTITCKASQDIKRYLSWYQQKPWKSPKILIYYATSLADGVPSRFSGTGSGQDYSLTISSLESDDVATYYCLQQGESPYTFGGGTKLEIK"
val = 8.28

[[record]]
binder = "ACI-7071-809F12-Ab1 (antibody, mouse IgG2b, V domains shown, Mouse IgG2b, kappa, from hybridoma; also called 809F12D8) VH: QVQLKESGPGLVAPSQSLSITCTVSGFSLNRNGVQWVRQPPGKGLEWLGVIWPGGSTNCNSALMSRLSISKDNSKSQVFLKMNSLHTDDTGIYYCARVGGNYVWDYNNYAWGQGTLVTVSA VL: DVLMTQTPLSLPVSLGDQASISCRSSQNIVHSIGNTYLEWYLQKPGQSPKLLIYKVSNRFSGVPDRFSGSGSGTDFTLKISRVEAEDLGVYYCFQGSHVPYTFGGGTKLEIR"
val = 8.77

[[record]]
binder = "642D12B4 Fab (Fab, V domains shown, Fab fragment; also called Fab fragment of ACI-7069-642D12-Ab1) VH: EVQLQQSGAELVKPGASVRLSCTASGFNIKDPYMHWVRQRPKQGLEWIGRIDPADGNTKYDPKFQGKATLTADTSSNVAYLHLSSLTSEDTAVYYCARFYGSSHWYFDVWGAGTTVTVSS VL: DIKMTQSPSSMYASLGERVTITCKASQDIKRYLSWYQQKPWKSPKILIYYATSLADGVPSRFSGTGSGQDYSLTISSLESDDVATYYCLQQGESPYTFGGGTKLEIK"
val = 7.66

